// fold activation, T-cell proliferation, 22 nM, non-anchored, donor 4 lookup, one value per entry
Test System: T1, human GITR (amino acids M1-V241, NCBI Accession #NP_004186.1) expressed on cells (human, UniProt Q9Y5U5 26-241)
T1 sequence: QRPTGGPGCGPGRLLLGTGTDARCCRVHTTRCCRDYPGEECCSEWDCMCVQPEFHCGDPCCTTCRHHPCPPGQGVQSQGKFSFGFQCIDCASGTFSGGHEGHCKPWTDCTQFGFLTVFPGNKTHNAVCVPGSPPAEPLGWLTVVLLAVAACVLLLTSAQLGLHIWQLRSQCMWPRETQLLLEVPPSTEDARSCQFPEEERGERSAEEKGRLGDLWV
Run Description: cell-based or functional assay
Measured Attribute: fold activation, T-cell proliferation, 22 nM, non-anchored, donor 4 (fold)

{"Binder": "H4H14525P (antibody, human IgG4, V domains shown, human IgG4 (H4H)) VH: QVQLVESGGGVVQPGRSLRLSCAASGFTFSSYGMHWVRQAPGKGLEWVAVIWYVGSNKYYGESVKGRFTISRDNSKNTLYLQMNSLRDEDTAIYYCARGGQLGSFYYYGMDVWGQGTTVTVSS VL: DIQMTQSPSSLSASVGDRVTITCRASQGIRNDLGWYQQKPGKAPKRLIYDVSSLQSGVPSRFSGSGSGTEFTLTISSLQPEDLATYYCLQHNSYPWTFGQGTKVEIK", "Value Units": "fold", "Result": 1}
{"Binder": "H4H14469P (antibody, human IgG4, V domains shown, human IgG4 (H4H)) VH: QVQLVESGGGVVQPGGSLRLSCAVSGFTFSDYGMHWVRQVPGAGLEWVAVIYYEGSNKYYADSVKGRFTISRDNSKNTLYLQMNSLRVEDTSMYFCARGPLLGGNFYSYLMDVWGQGTTVTVSS VL: AIQMTQSPSSLSASVGDRVTITCRASQGIRNGLGWYQQKPGKAPKLLIYTASSLQSGVPSRFSGSGSGTDFTLTISSLQPEDFATYYCLQDYNYPFSFGPGTKVDIK", "Value Units": "fold", "Result": 0.9}
{"Binder": "H4H14508P (antibody, human IgG4, V domains shown, human IgG4 (H4H)) VH: QVQLVESGGGVVQPGRSLRLSCAASGLTVSSYVMHWVRQAPGKGLEWVAIIWYDGSNKYYGDSVKGRFTISRDNSKKTLYLQMNSLRAEDTAVYYCARGRPLSSSSSDYYGLDVWGQGTTVTVSS VL: AIQMTQSPSSLSASVGDRVTIICRASQGIRNDLGWYQQKPGKAPNLLIYAASSLQSGVPSRFSGSGSGTDFTLTISSLQPEDFATYYCLQDYNYPWTFGQGTKVEIK", "Value Units": "fold", "Result": 1.4}
{"Binder": "H4H14475P (antibody, human IgG4, V domains shown, human IgG4 (H4H)) VH: QVQLVESGGGVVQPGRSLRLSCAASGTIFSTHGMHWVRQAPGKGLEWVAVISYDGNKKYYAGSVKGRFTISRDNSKNTLYLQMNDVRSEDTAVYHCTTDITGITDYWGQGTLVTVSS VL: DIQMTQSPSSLSASVGDRVTITCRASQGIGNDLGWYQQKLGKAPKRLIYAASSLESGVPSRFSGSGSGTEFILTISSLQAEDFATYYCLQHNGFPTFGQGTKVEIK", "Value Units": "fold", "Result": 0.8}
{"Binder": "H4H14528P (antibody, human IgG4, V domains shown, human IgG4 (H4H)) VH: QVQLVESGGGVVQPGRSLRISCAASGFTFNNYGFHWVRQAPGRGLEWVAVIWYSGSNKYYGDSVKGRFTISRDNSKNILYLQMNSLRAEDTAIYYCARFPFSSSWLLDYWGQGTLVTVSS VL: DIQLTQSPSFLSASVGDRVTFTCWASQGISDYLAWYQQKPGKAPKLLIYAASALQSGVPSRFSGSGSGTEFTLTVSSLQPEDFATYYCQQLNSYPFTFGPGTKVDIK", "Value Units": "fold", "Result": 1}
